Documented pIC50 across a set of compounds
- test_description: Inhibition of cytochrome-bd oxidase in Mycobacterium bovis BCG assessed as replicating ATP by measuring ATP depletion incubated for 15 hrs in presence of Q203 by BacTiter-Glo luminescence assay
- Set-up: species or system Mycobacterium tuberculosis variant bovis BCG
pIC50: −log10 of the molar value.

compound	readout_relation	pIC50
Cc1ccc(CCNc2ncnc3ccsc23)cc1	=	1.39
CN(C)c1ccc(CCNc2ncnc3ccsc23)cc1	=	1.41
CC(C)(C)c1ccc(CCNc2ncnc3ccsc23)cc1	=	2.24
FC(F)(F)Oc1ccc(Nc2ncnc3ccsc23)cc1	=	1.64
FC(F)(F)Oc1ccc(CNc2ncnc3ccsc23)cc1	=	1.42
FC(F)(F)Oc1ccc(CCNc2ncnc3ccsc23)cc1	=	1.90
FC(F)(F)c1cccc(CCNc2ncnc3ccsc23)c1	=	1.59
Clc1ccc(CCNc2ncnc3ccsc23)cc1	=	1.52
Clc1ccc(CCNc2ncnc3ccsc23)cc1Cl	=	1.59
COc1ccc(CCNc2ncnc3ccsc23)cc1	=	1.37
COc1nc2ccc(Br)cc2cc1[C@@H](c1ccccc1)[C@@](O)(CCN(C)C)c1cccc2ccccc12 [BEDAQUILINE]	=	4.05
FS(F)(F)(F)(F)c1ccc(CCNc2ncnc3ccsc23)cc1	=	1.57
COc1ccc(CCNc2ncnc3sccc23)cc1	<	4.30
FC(F)(F)c1ccccc1CCNc1ncnc2ccsc12	=	1.91
c1ccc(CCNc2ncnc3ccsc23)cc1	=	1.36
FC(F)(F)c1ccc(CCNc2ncnc3ccsc23)cc1	=	1.48
FC(F)(F)c1ccc(Oc2ccc(Nc3ncnc4ccccc34)cc2)cc1	=	3.10
